The compounds listed here are annotated with their melting point.
Please reply with the bare figure in °C and do not write the unit itself.

Known results for compounds:
Dear colleague, please send me the reported melting point for `CC(C)CN(C)Cc1cc(-c2cccc(C3=Nc4cc(OCC(F)(F)F)c(C(F)(F)F)cc4NC(=O)C3)c2)ccn1` when you can.
166

Identify measured melting point corresponding to `O=C1CC(c2cccc(-c3cccnc3)c2)=Nc2cc(C(F)(F)F)c(C(F)(F)F)cc2N1`
210

---
Using the record for `O=C1CC(c2cccc(-c3ccnc(N4CCCC4)c3)c2)=Nc2ccc(C(F)(F)F)cc2N1` , state its measured melting point.
224

State, in one line, measured melting point of `O=C1CC(c2cccc(-c3ccnc(CO)c3)c2)=Nc2cc(Cl)c(C(F)(F)F)cc2N1`
199

Tell us which melting point value is on record for `Cc1cc2c(cc1C(F)(F)F)NC(=O)CC(c1cccc(-c3ccnnc3)c1)=N2`
223

Complete the entry with melting point for `CCc1cc(-c2cccc(C3=Nc4cc(C)c(Cl)cc4NC(=O)C3)c2)ccn1`
195

Answer with the recorded melting point of `CCc1cnc(C)cc1-c1cccc(C2=Nc3cc(Cl)c(Cl)cc3NC(=O)C2)c1` only.
191

Indicate its recorded melting point; the compound in question is `Cc1cc(-c2cccc(C3=Nc4cc(Cl)c(C(F)(F)F)cc4NC(=O)C3)c2)c(C)cn1`
214

Give the reported melting point for this compound. `O=C1CC(c2cccc(-c3ccnc(C(F)(F)F)c3)c2)=Nc2cc(Cl)c(C(F)(F)F)cc2N1`
229

Please report the measured melting point for `O=C1CC(c2cccc(-c3ccnc(C(F)(F)F)c3)c2)=Nc2cc(Cl)c(Cl)cc2N1`
226

Indicate its recorded melting point; the compound in question is `Cc1cc2c(cc1C(F)(F)F)N=C(c1cccc(-c3cnccn3)c1)CC(=O)N2`
216

Give the value of melting point reported for the following: `Cc1ncccc1-c1cccc(C2=Nc3ccc(Cl)cc3NC(=O)C2)c1`
198

Fill in reported melting point for this entry: `CCOc1cc2c(cc1C(F)(F)F)NC(=O)CC(c1cccc(-c3ccnc(C4CC4)c3)c1)=N2`
244

Return reported melting point. Input compound: `Cc1cncc(-c2cccc(C3=Nc4cc(C)c(Cl)cc4NC(=O)C3)c2)n1`
235

Give melting point for the following compound: `CCCN(C)c1cc2c(cc1C(F)(F)F)NC(=O)CC(c1cccc(-c3cc(C)nc(C)c3)c1)=N2`
233

Give melting point for `CCc1ncccc1-c1cccc(C2=Nc3cc(OCC(F)(F)F)c(C(F)(F)F)cc3NC(=O)C2)c1`
184

Note down melting point recorded for `Cc1cc(-c2cccc(C3=Nc4cc(N(C)CC(C)C)c(C(F)(F)F)cc4NC(=O)C3)c2)ccn1`
189

Give the value of melting point reported for the following: `Cc1cc2c(cc1C(F)(F)F)NC(=O)CC(c1cccc(-c3ccnc(C(C)C)c3)c1)=N2`
205

Tell me melting point reported for `CCOc1cc2c(cc1C(F)(F)F)NC(=O)CC(c1cccc(-c3cc(C)ncc3C)c1)=N2`
189

Supply reported melting point belonging to this compound: `CCOc1cc2c(cc1C(F)(F)F)NC(=O)CC(c1cccc(-c3cc(C)nc(C4CC4)c3)c1)=N2`
232

Hello, please tell me recorded melting point for this one: `CCCN(C)Cc1cc(-c2cccc(C3=Nc4cc(OCC(F)(F)F)c(C(F)(F)F)cc4NC(=O)C3)c2)ccn1`
155

Using known records, supply melting point for `O=C1CC(c2cccc(-c3ccnc(C4CC4)c3)c2)=Nc2ccc(C(F)(F)F)cc2N1`
181

Respond only with melting point recorded for `Cc1cc2c(cc1Cl)NC(=O)CC(c1cccc(-c3ccnc(CNC4CC4)c3)c1)=N2`
171

Tell me its melting point given `Cc1cc(-c2cccc(C3=Nc4cc(Cl)c(Cl)cc4NC(=O)C3)c2)cc(C)[n+]1[O-]` as the entry.
225

###

melting point by entry:
Give the quantity in °C, number only.

Give a short answer stating reported melting point for `O=C1CC(c2cccc(-c3ccc[n+]([O-])c3)c2)=Nc2cc(OCC(F)(F)F)c(C(F)(F)F)cc2N1` .
226

Provide measured melting point value, entry: `CC(C)CN(C)c1cc2c(cc1C(F)(F)F)NC(=O)CC(c1cccc(-c3ccnc(CO)c3)c1)=N2`
130

Determine its reported melting point: `O=C1CC(c2cccc(-c3cccnc3)c2)=Nc2ccc(OCC(F)(F)F)cc2N1`
156

Fill in reported melting point for this entry: `O=C1CC(c2cccc(-c3cnccn3)c2)=Nc2cc(OCC(F)(F)F)c(C(F)(F)F)cc2N1`
242

Give recorded melting point. `Cc1cc(-c2cccc(C3=Nc4cc(N(C)C)c(C(F)(F)F)cc4NC(=O)C3)c2)cc(C)n1`
256

Look up and report measured melting point for this entry: `CCc1ccc(-c2cccc(C3=Nc4cc(OCC(F)(F)F)c(C(F)(F)F)cc4NC(=O)C3)c2)cn1`
191

Give the value of melting point reported for the following: `O=C1CC(c2cccc(-c3cccnc3)c2)=Nc2ccc(C#Cc3ccccc3)cc2N1`
241

For `Cc1cc(-c2cccc(C3=Nc4cc(Cl)c(C(F)(F)F)cc4NC(=O)C3)c2)ccn1` , write its melting point.
221

###

assayMetric: melting point (°C)
Expressed in °C, but write only the number.

Using known records, supply melting point for `CN(C)c1cc2c(cc1C(F)(F)F)NC(=O)CC(c1cccc(-c3ccccn3)c1)=N2`
201

Consider the molecule `Cc1nccc(-c2cccc(C3=Nc4cc(Cl)c(C(F)(F)F)cc4NC(=O)C3)c2)c1C` . State its measured melting point.
212

Next molecule, melting point to be filled in.
Hello, please tell me recorded melting point for this one: `CC(C)CN(C)Cc1cc(-c2cccc(C3=Nc4cc(N(C)CC(C)C)c(C(F)(F)F)cc4NC(=O)C3)c2)ccn1`
190

###

melting point values by entry
The reply should be a number in °C, with the unit left off.

Quote melting point reported for CCOc1cc2c(cc1C(F)(F)F)NC(=O)CC(c1cccc(-c3ccnc(C)c3C)c1)=N2 [Example 146] please.
217

###

Consider the following compounds and their measured pKi readings.
- systemTested: rat mGlu2 receptor (Rattus norvegicus)
- Construct: expressed in transfected cells; vector pcD1mGR2
- Sequence (P31421 19-872): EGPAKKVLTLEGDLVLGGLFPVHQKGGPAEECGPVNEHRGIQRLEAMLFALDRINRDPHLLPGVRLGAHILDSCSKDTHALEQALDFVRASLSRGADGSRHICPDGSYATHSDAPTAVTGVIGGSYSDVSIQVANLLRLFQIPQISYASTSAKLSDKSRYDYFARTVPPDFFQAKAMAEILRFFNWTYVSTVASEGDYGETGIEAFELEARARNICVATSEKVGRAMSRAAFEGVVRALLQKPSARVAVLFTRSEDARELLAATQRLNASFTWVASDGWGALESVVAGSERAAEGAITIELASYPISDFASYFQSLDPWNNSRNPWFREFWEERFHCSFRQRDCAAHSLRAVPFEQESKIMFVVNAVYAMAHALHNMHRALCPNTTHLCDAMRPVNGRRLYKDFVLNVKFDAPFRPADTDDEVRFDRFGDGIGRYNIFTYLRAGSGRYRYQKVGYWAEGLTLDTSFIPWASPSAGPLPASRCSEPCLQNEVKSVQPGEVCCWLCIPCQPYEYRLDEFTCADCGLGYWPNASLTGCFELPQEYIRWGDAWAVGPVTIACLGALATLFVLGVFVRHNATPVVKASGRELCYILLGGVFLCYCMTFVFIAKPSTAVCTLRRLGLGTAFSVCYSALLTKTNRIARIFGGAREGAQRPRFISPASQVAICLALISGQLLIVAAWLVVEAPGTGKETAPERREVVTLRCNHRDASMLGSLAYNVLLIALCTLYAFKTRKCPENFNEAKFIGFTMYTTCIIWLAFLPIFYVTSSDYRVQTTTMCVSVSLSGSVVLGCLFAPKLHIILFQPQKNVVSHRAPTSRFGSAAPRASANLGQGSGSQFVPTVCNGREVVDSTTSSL
- methodSummary: [3H]-LY354740 binding on mGlu2 transfected CHO cell membranes
- reportedConditions: inhibition of 10 nM [3H]-LY354740 binding, mGlu2 transfected CHO cell membranes, room temperature, 1 hour; read-out: Ki mGlu2
pKi (log units): -log10 of the concentration in mol/L.

Below: 3 compounds and their reported pKi.
State recorded pKi with rat mGlu2 receptor (Rattus norvegicus), entry `Cc1cc(C2CC2)ncc1-c1cccc(C2=Nc3cc(C)c(C(F)(F)F)cc3NC(=O)C2)c1` , no comment.
7.77

Send back rat mGlu2 receptor (Rattus norvegicus) pKi of `Cc1ccc(-c2cccc(C3=Nc4ccc(-c5ccccc5F)cc4NC(=O)C3)c2)nn1` only.
7.78

GET pKi | system: rat mGlu2 receptor (Rattus norvegicus) | item: `N#Cc1cc(-c2cccc(C3=Nc4ccc(C(F)(F)F)cc4NC(=O)C3)c2)ccn1`
7.63

Let us move to another entry and its pKi.
Fill: pKi (rat mGlu2 receptor (Rattus norvegicus)) for this compound `CN(C)c1cc2c(cc1C(F)(F)F)NC(=O)CC(c1cccc(-c3cccnc3)c1)=N2`
8.64

###

- systemTested: rat mGlu2 receptor (Rattus norvegicus)
- Construct: expressed in transfected cells; vector pcD1mGR2
- methodSummary: [3H]-LY354740 binding on mGlu2 transfected CHO cell membranes
- reportedConditions: inhibition of 10 nM [3H]-LY354740 binding, mGlu2 transfected CHO cell membranes, room temperature, 1 hour; read-out: Ki mGlu2
assayMetric: Ki (nM)
I only need the number, in nM, no unit after it.

Use the examples below as a reference point.
Quick one: give measured Ki for `Cc1cc2c(cc1Cl)NC(=O)CC(c1cccc(-c3cncnc3)c1)=N2`
8

Please look at this compound and report its Ki: `O=C1CC(c2cccc(-c3ccccn3)c2)=Nc2cc(Cl)c(Cl)cc2N1`
23.5

Please supply the value of reported Ki for the item `O=C1CC(c2cccc(-c3ccc[n+]([O-])c3)c2)=Nc2cc(OCC(F)(F)F)c(C(F)(F)F)cc2N1`
6.1

Report Ki for `CCOc1cc2c(cc1C(F)(F)F)NC(=O)CC(c1cccc(-c3cc[n+]([O-])c(C)c3)c1)=N2`
26.5

Input `Cc1ccc(-c2cccc(C3=Nc4cc(N(C)C)c(C(F)(F)F)cc4NC(=O)C3)c2)c(C)n1` , output reported Ki.
22.5

Read the entry `O=C1CC(c2cccc(-c3cncnc3)c2)=Nc2ccc(-c3ccccc3F)cc2N1` and write its reported Ki.
6.2

Note Ki for the compound shown: `O=C1CC(c2cccc(-c3ccccn3)c2)=Nc2ccc(-n3cccc3)cc2N1`
32.6

Quote Ki reported for `Cc1ccc(-c2cccc(C3=Nc4ccc(C(F)(F)F)cc4NC(=O)C3)c2)cn1` please.
5.5

Others:
Dear colleague, please send me the reported Ki for `Cc1cc(-c2cccc(C3=Nc4ccc(-c5ccccc5F)cc4NC(=O)C3)c2)ccn1` when you can.
1.8

Output measured Ki for this item: `Cc1cc(-c2cccc(C3=Nc4cc(C)c(Cl)cc4NC(=O)C3)c2)ccn1`
2.7

Give a short answer stating reported Ki for `O=C1CC(c2cccc(-c3cccnc3)c2)=Nc2ccc(Cl)cc2N1` .
2

Give the value of Ki reported for the following: `O=C1CC(c2cccc(-c3ccnc(N4CCCC4)c3)c2)=Nc2cc(OCC(F)(F)F)c(C(F)(F)F)cc2N1`
7.9

Identify Ki associated with the compound `Cc1ccc(-c2cccc(C3=Nc4ccc(-c5ccccc5F)cc4NC(=O)C3)c2)cn1`
3.9

For the compound `Cc1cc(-c2cccc(C3=Nc4cc(N(C)C)c(C(F)(F)F)cc4NC(=O)C3)c2)ccn1` , report Ki.
1.29

// fetch Ki given entry `O=C1CC(c2cccc(-c3cccnc3)c2)=Nc2cc(OCC(F)(F)F)ccc2N1`
6.2

// fetch Ki given entry `Cc1cc2c(cc1C(F)(F)F)NC(=O)CC(c1ccnc(-c3cccnc3)c1)=N2`
5

Entry `O=C1CC(c2cccc(-c3cnccn3)c2)=Nc2ccc(-n3cccc3)cc2N1` needs its Ki filled in; supply it.
5.5
